# MEASURED_TARGET: alpha 2 receptor
# METHOD: alpha 2 receptor binding assay
# ASSAY_SETUP: read-out: Ki Alpha2
# Procedure: Binding assays were performed using Compound 1 and 2 in competitive binding assays with known standards for the H1 histamine receptor, and the M1, M2, and M3 muscarinic receptors, alpha 1 and alpha 2 receptors, and D1 and D2 receptors.
pKi: −log10 of the molar value.
REPORTED_PROPERTY: pKi

[[record]]
compound_structure = "O=C(O)CCCN1CCN(C2=Nc3ccccc3Oc3ccccc32)CC1"
recorded_value = "< 5.00"

[[record]]
compound_structure = "O=C(O)CCN1CCN(C2=Nc3ccccc3Oc3ccccc32)CC1"
recorded_value = "< 5.00"


###

# MEASURED_TARGET: Dopamine, D1 (human recombinant) (Homo sapiens)
# Sequence (P21728 whole entry): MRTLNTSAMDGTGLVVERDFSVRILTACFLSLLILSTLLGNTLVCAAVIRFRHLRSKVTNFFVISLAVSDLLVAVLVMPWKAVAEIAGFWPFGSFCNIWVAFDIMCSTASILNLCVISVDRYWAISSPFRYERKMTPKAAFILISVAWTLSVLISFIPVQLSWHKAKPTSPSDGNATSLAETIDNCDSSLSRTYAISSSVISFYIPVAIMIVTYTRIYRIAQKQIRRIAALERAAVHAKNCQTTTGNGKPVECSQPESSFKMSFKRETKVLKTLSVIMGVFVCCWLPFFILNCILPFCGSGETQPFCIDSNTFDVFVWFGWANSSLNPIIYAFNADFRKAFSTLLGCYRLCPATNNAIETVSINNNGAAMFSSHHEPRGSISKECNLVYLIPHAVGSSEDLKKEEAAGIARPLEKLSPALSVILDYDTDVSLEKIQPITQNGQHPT
# METHOD: Dopamine D1 binding assay
pKi: −log10 of the molar value.
Recorded measurements of pKi, one per entry
REPORTED_PROPERTY: pKi

[[record]]
compound_structure = "O=C(O)CCN1CCN(C2=Nc3ccccc3Oc3ccccc32)CC1"
recorded_value = 5.95

[[record]]
compound_structure = "O=C(O)CCCN1CCN(C2=Nc3ccccc3Oc3ccccc32)CC1"
recorded_value = 5.20


###

# MEASURED_TARGET: alpha 1 receptor
# METHOD: alpha 1 receptor binding assay
# ASSAY_SETUP: read-out: Ki Alpha1
REPORTED_PROPERTY: Ki (µM)

[[record]]
compound = "O=C(O)CCCN1CCN(C2=Nc3ccccc3Oc3ccccc32)CC1 [Compound 2]"
unit_label = "µM"
comparison_operator = "="
recorded_value = 3.27

[[record]]
compound = "O=C(O)CCN1CCN(C2=Nc3ccccc3Oc3ccccc32)CC1 [Compound 1]"
unit_label = "µM"
comparison_operator = ">"
recorded_value = 10

